Species on record: Mus musculus
Assay: Effect on the proliferation of murine spleen cells evaluated in terms of [3H]TdR uptake into the cells at a concentration of 1 ng/mL
Format: functional
endpointLabel: 3H-TdR incorpolation (c.p.m.)
Respond numerically; units are c.p.m. and should not be typed.

// below: answered compounds
{"columns": ["smilesCode", "reportedResult"],
 "data": [
  ["CCCCCCCCCCCCCCCCCCCCCC[C@@H](O)C(=O)N[C@@H](CO[C@H]1O[C@@H](CO)[C@H](O)[C@H](O)[C@@H]1O)[C@@H](CCCCCCCCCCCCCCC)O[C@H]1O[C@@H](CO)[C@H](O)[C@H](O)[C@@H]1O", 16138],
  ["CCCCCCCCCCCCCCC[C@@H](O[C@H]1O[C@@H](CO)[C@H](O)[C@H](O)[C@@H]1O)[C@H](CO)NC(=O)CCCCCCCCCCCCC", 7722],
  ["CCCCCCCCCCCCCCC[C@@H](O)[C@H](CO[C@H]1O[C@@H](CO)[C@H](O)[C@H](O)[C@@H]1O)NC(=O)CCCCCCCCCCCCC", 9018],
  ["CCCCCCCCCCCCCCCCCCCCCC[C@@H](O)C(=O)N[C@@H](CO[C@H]1O[C@@H](CO)[C@H](O)[C@H](O)[C@@H]1O)[C@H](O)CCCCCCCCCCCCCCC", 9454]
]}

Now, please, on to the next compound.
3H-TdR incorpolation in this record for CCCCCCCCCCCCCCCCCCCCCC[C@@H](O)C(=O)N[C@@H](CO[C@H]1O[C@@H](CO)[C@H](O)[C@H](O)[C@@H]1O)[C@@H](CCCCCCCCCCCCCCC)O[C@@H]1O[C@@H](CO)[C@H](O)[C@H](O)[C@@H]1O : 7892
